Tested on: MDA-MB-435
Assay: NCI tumour cell line growth inhibition, 48 h
Grouping key: TGI. Bins: Low = under 10 µM, Mid = from 10 µM up to 50 µM, High = 50 µM and over

Known results for compounds:
>  <compound>
COc1ccc2c(c1)/C(=N/OC(C)=O)c1c-2c(Nc2cccc(/C(C)=N/OC(C)=O)c2)nc2ccccc12

>  <group>
High

$$$$
>  <compound>
CC(C)(C)c1ccc(O)c(CN(Cc2c(O)ccc3ccccc23)C2CCCCC2)c1

>  <group>
High

$$$$
>  <compound>
C=CC(=O)N1CCN(CCCn2c(=O)c(-c3c(Cl)c(OC)cc(OC)c3Cl)cc3cnc(NC)nc32)CC1

>  <group>
Mid

$$$$
>  <compound>
COc1cccc2[nH]c3c4c(c5c(c3c12)C(=O)N(CN1CCN(C)CC1)C5=O)CCC4

>  <group>
Mid

$$$$

Lookup: Assign a bin to OCCCCC#Cc1ccccc1C#Cc1ccccn1
Found: High

Lookup: Form: Item = CC(C)(CNC(=O)/C(Cl)=C(/Cl)C(=O)O)CNC(=O)/C(Cl)=C(/Cl)C(=O)O ; Class = ?
Found: High

Lookup: Class? Entry: CCOC(=O)C(COS(C)(=O)=O)(COS(C)(=O)=O)C(=O)OCC
Found: High

Lookup: Lab note: which band did CCc1n[nH]c(=O)n1/N=C/c1ccc(/C=N/n2c(CC)n[nH]c2=O)cc1 land in?
Found: High

Lookup: # classify by TGI band: O=C1/C(=C\c2cccc(Oc3ccccc3)c2)SC(c2ccccc2)N1c1ccccc1Cl (configuration not stated)
Found: High

Lookup: Please indicate the class for COc1ccc2cc(C#Cc3ccc(-n4c(/C=C/c5cc(OC)c(OC)c(OC)c5)nc5ccccc5c4=O)c(C)c3)ccc2c1 based on its TGI.
Found: High

Lookup: Lab note: sort O=C1C=CC(O)(C#CCO)C=C1 into the matching TGI band.
Found: Mid

Lookup: Which band does COc1nc(-c2c[nH]c3ccccc23)cnc1N fall in?
Found: High

* * *

Tested on: HOP-62 NSCLC
Assay: NCI tumour cell line growth inhibition, 48 h
measuredMetric: TGI

>  <molecule>
COc1ccccc1N1C(=O)CSC1c1c[nH]c2ccccc12 (stereo unspecified)

>  <result>
> 100 µM

$$$$
>  <molecule>
Cc1nnc2n1-c1ccccc1-c1[nH]c3ccccc3c1C2

>  <result>
> 100 µM

$$$$
>  <molecule>
CN[C@@H](C)C(=O)N[C@H]1CCS[C@H]2CC(C)(C)[C@@H](C(=O)N[C@H]3c4ccccc4C[C@H]3OCC#CC#CCO[C@@H]3Cc4ccccc4[C@@H]3NC(=O)[C@H]3N4C(=O)[C@@H](NC(=O)[C@H](C)NC)CCS[C@H]4CC3(C)C)N2C1=O

>  <result>
> 50 µM

$$$$
>  <molecule>
Cc1ccccc1OC(C)C(=O)NN1C(=O)CC(=O)NC1=S (stereo unspecified)

>  <result>
> 100 µM

$$$$
>  <molecule>
CC#CC(O)(C(=O)OC1CCC2CCC1N2C)C1CCCC1 (stereo unspecified)

>  <result>
> 100 µM

$$$$

Lookup: If you can, please state the reported TGI value of CC1(C)CC(C)(C)CC(O)(C2(O)CC(C)(C)CC(C)(C)C2)C1 .
Found: > 100 µM

Lookup: GET /values?readout=TGI&item= COc1ccc(C(C)c2cc3c(cc2O)OCO3)cc1 (stereo unspecified)
Found: 33.7 µM

Lookup: Give the measured TGI of COc1cc2c(/C=C3/C(=O)Nc4c3ccc3ccccc43)c(Cl)n(C)c2cc1C .
Found: 16 µM

Lookup: Requested field: TGI. Item: O=C(C[n+]1cccc2cc(Cl)ccc21)c1ccc2c(c1)CCCC2
Found: 3.85 µM

Lookup: What value of TGI has been recorded for this entry: Cc1cn(CCCC2=NCCCN2)c(=O)[nH]c1=O
Found: > 100 µM

Lookup: Give the measured TGI of CCCCC(CCCCCC(CCCC)C1NC(C)Cc2cc(OC)c(OC)cc21)C1NC(C)Cc2cc(OC)c(OC)cc21 (stereo unspecified) .
Found: 2.88 µM

Lookup: Look up TGI for this molecule: Cc1cc(OCC(=O)O)c(Cl)cc1Cl
Found: > 100 µM

Lookup: # lookup: TGI of COc1cc(C(c2c(O)c3ccccc3oc2=O)c2c(O)c3ccccc3oc2=O)ccc1O
Found: > 100 µM
